Reference for the values: ChEMBL document CHEMBL1123469

system: Mus musculus; experiment: Evaluated for anticonvulsant activity when administered orally in mice by Maximal electroshock (MES).; assay type: functional; settings: po
Binning of ED50 into classes: low-valued (below 20 mg/kg), mid-valued (20 mg/kg to below 40 mg/kg), high-valued (40 mg/kg or more)

Consider the following illustrative entries.
compound-structure	category-label
Cc1ccc(-c2ccc(N3CCC(O)CC3)nn2)c(Cl)c1	mid-valued
Cc1ccccc1-c1ccc(N2CCC(O)CC2)nn1	mid-valued
Cc1cccc(-c2ccc(N3CCC(O)CC3)nn2)c1	mid-valued
CC(=O)OC1CCN(c2ccc(-c3ccc(Cl)cc3Cl)nn2)CC1	low-valued
CCC(=O)OC1CCN(c2ccc(-c3ccc(Cl)cc3Cl)nn2)CC1	high-valued
C/N=C(\S)OC1CCN(c2ccc(-c3ccccc3Cl)nn2)CC1	mid-valued

**Query** State the class of the molecule shown: `OC1CCN(c2ccc(-c3ccc(Cl)cc3)nn2)CC1`
**Result** mid-valued

**Query** State the class of the molecule shown: `CNC(=O)OC1CCN(c2ccc(-c3ccc(Cl)cc3Cl)nn2)CC1`
**Result** low-valued

**Query** State the class of the molecule shown: `CCCC(=O)OC1CCN(c2ccc(-c3ccc(Cl)cc3Cl)nn2)CC1`
**Result** high-valued

**Query** State the class of the molecule shown: `O=COC1CCN(c2ccc(-c3ccc(Cl)cc3Cl)nn2)CC1`
**Result** mid-valued

---

tested on: Mus musculus; experiment: Evaluated for Bicuculline-induced lethality (anticonvulsant activity) when administered orally in mice.; assay type: functional; conditions: po
quantity-kind: ED50 (mg/kg)
Give the value in mg/kg but do not write mg/kg after it.

Completed entries (count: 6):
molecule	reported-measurement
O=C(OC1CCN(c2ccc(-c3ccccc3Cl)nn2)CC1)C1CC1	71
CCCC(=O)OC1CCN(c2ccc(-c3ccc(Cl)cc3Cl)nn2)CC1	30
CCCC(CCC)C(=O)[O-].[Na+] [VALPROATE SODIUM]	246
C/N=C(\S)OC1CCN(c2ccc(-c3ccccc3Cl)nn2)CC1	20
O=C1CCN(c2ccc(-c3ccccc3Cl)nn2)CC1	25
OC1CCN(c2ccc(-c3ccccc3Cl)nn2)CC1	34

**Query** Form entry - test system: Mus musculus; read-out: ED50; molecule: `OC1CCN(c2ccc(-c3ccc(Cl)cc3Cl)nn2)CC1`
**Result** 8.5

**Query** Form entry - test system: Mus musculus; read-out: ED50; molecule: `Cc1cccc(-c2ccc(N3CCC(O)CC3)nn2)c1`
**Result** 50

**Query** Form entry - test system: Mus musculus; read-out: ED50; molecule: `Cc1ccccc1-c1ccc(N2CCC(O)CC2)nn1`
**Result** 60

**Query** Form entry - test system: Mus musculus; read-out: ED50; molecule: `CCCC(=O)OC1CCN(c2ccc(-c3ccccc3Cl)nn2)CC1`
**Result** 30

**Query** Form entry - test system: Mus musculus; read-out: ED50; molecule: `O=C1CCN(c2ccc(-c3ccc(Cl)cc3Cl)nn2)CC1`
**Result** 7

**Query** Form entry - test system: Mus musculus; read-out: ED50; molecule: `O=[N+]([O-])c1ccccc1-c1ccc(N2CCC(O)CC2)nn1`
**Result** 57

**Query** Form entry - test system: Mus musculus; read-out: ED50; molecule: `Cc1cc(Cl)ccc1-c1ccc(N2CCC(O)CC2)nn1`
**Result** 10

**Query** Form entry - test system: Mus musculus; read-out: ED50; molecule: `CN(C)C(=O)OC1CCN(c2ccc(-c3ccccc3Cl)nn2)CC1`
**Result** 1.1

**Query** Form entry - test system: Mus musculus; read-out: ED50; molecule: `CNC(=O)OC1CCN(c2ccc(-c3ccccc3Cl)nn2)CC1`
**Result** 9

**Query** Form entry - test system: Mus musculus; read-out: ED50; molecule: NC(=O)N1c2ccccc2C=Cc2ccccc21 [CARBAMAZEPINE]
**Result** 16

**Query** Form entry - test system: Mus musculus; read-out: ED50; molecule: `OC1CCN(c2ccc(-c3ccccc3F)nn2)CC1`
**Result** 34

**Query** Form entry - test system: Mus musculus; read-out: ED50; molecule: `OC1CCN(c2ccc(-c3ccccc3)nn2)CC1`
**Result** 41

**Query** Form entry - test system: Mus musculus; read-out: ED50; molecule: `CC(=O)OC1CCN(c2ccc(-c3ccc(Cl)cc3Cl)nn2)CC1`
**Result** 8.3

**Query** Form entry - test system: Mus musculus; read-out: ED50; molecule: `OC1CCN(c2ccc(-c3cc(Cl)ccc3Cl)nn2)CC1`
**Result** 101

**Query** Form entry - test system: Mus musculus; read-out: ED50; molecule: `CNC(=O)OC1CCN(c2ccc(-c3ccc(Cl)cc3Cl)nn2)CC1`
**Result** 1.4

**Query** Form entry - test system: Mus musculus; read-out: ED50; molecule: `Cc1ccc(-c2ccc(N3CCC(O)CC3)nn2)c(Cl)c1`
**Result** 16

**Query** Form entry - test system: Mus musculus; read-out: ED50; molecule: `O=[N+]([O-])c1ccc(-c2ccc(N3CCC(O)CC3)nn2)cc1`
**Result** 57

**Query** Form entry - test system: Mus musculus; read-out: ED50; molecule: `CCC1(c2ccccc2)C(=O)NC(=O)NC1=O`
**Result** 5.2

**Query** Form entry - test system: Mus musculus; read-out: ED50; molecule: `CCC(=O)OC1CCN(c2ccc(-c3ccc(Cl)cc3Cl)nn2)CC1`
**Result** 13
